# subject-of-test: importin α5 (79-538) in the ITC cell (human) (UniProt P52294)
# test-method-notes: ITC
Ends that are not written are not given here.
reported-endpoint: Kd (µM)
# output: bare number, implied unit µM

Lookup: Give the measured Kd of KRPRSPSS (not fully specified) [unphosphorylated EBNA-1 NLS peptide (379-KRPRSPSS-386)] .
Found: 30

Data origin: paper PMC2930068
